Recorded IC50 values for a group of compounds are listed next.
Target: human recombinant HDAC6 (Homo sapiens)
Sequence (Q9UBN7 1-1215): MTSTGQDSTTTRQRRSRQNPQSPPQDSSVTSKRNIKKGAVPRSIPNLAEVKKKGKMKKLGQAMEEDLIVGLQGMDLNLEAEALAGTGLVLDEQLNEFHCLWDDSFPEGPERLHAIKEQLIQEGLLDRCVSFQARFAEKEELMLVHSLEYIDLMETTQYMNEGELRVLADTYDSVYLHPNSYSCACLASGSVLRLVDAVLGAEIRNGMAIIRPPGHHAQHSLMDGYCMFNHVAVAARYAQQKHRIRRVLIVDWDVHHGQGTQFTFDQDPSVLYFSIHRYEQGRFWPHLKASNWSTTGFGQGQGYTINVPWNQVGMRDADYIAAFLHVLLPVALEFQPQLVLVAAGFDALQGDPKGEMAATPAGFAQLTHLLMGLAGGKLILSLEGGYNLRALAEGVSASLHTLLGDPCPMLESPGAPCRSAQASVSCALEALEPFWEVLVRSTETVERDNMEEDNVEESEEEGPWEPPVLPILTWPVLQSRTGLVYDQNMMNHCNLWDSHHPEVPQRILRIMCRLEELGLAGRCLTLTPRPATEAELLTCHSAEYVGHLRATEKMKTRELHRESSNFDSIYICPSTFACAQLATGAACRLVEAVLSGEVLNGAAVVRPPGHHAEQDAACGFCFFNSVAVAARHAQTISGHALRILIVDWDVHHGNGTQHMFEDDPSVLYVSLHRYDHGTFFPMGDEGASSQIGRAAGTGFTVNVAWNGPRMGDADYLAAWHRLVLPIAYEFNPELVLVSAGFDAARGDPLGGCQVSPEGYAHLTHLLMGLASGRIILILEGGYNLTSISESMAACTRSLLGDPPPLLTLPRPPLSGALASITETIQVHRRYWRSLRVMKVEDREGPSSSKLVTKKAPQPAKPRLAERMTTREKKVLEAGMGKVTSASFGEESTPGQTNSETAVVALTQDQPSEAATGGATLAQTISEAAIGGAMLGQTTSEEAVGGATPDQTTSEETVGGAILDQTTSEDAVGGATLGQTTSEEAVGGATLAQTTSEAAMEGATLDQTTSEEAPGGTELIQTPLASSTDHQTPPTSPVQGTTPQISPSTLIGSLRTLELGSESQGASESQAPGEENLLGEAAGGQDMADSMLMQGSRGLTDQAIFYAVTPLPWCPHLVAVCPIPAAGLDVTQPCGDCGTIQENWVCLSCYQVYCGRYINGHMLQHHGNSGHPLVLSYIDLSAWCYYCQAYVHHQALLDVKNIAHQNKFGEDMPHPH
Experiment: HDAC6 enzyme activity inhibition test (HDAC Fluorometric Drug Discovery Kit)
Settings: human recombinant HDAC6; same protocol as HDAC1

| input_smiles | tested_target | units_text | IC50 |
| --- | --- | --- | --- |
| O=c1oc(-c2ccc(CN3CCCCC3)cc2)nn1Cc1ccc(-c2nnc(C(F)F)o2)cn1 | human recombinant HDAC6 (Homo sapiens) | µM | 0.113 |
| O=c1oc(-c2ccc3c(c2)CN(C2CCC2)CC3)nn1Cc1ccc(-c2nnc(C(F)F)o2)cn1 | human recombinant HDAC6 (Homo sapiens) | µM | 0.105 |
| CC(C)N1CCc2ccc(-c3nn(Cc4ccc(-c5nnc(C(F)F)o5)cn4)c(=O)o3)cc2C1 | human recombinant HDAC6 (Homo sapiens) | µM | 0.105 |
| FC(F)c1nnc(-c2ccc(Cn3nc(-c4cccnc4)oc3=S)nc2)o1 | human recombinant HDAC6 (Homo sapiens) | µM | 0.106 |
| CC(C)N1CCC(c2cccc(-c3nn(Cc4ccc(-c5nnc(C(F)F)o5)cn4)c(=S)o3)c2F)CC1 | human recombinant HDAC6 (Homo sapiens) | µM | 0.0771 |
| CC(C)N1CCN(c2ccc(-c3nn(Cc4ccc(-c5nnc(C(F)F)o5)cn4)c(=O)o3)cc2)CC1 | human recombinant HDAC6 (Homo sapiens) | µM | 0.104 |
